# Test system: BT-549 breast
# assay_info: NCI tumour cell line growth inhibition, 48 h; in the data active = GI50 below about 0.43 µM; inactive = the rest
Result category, one only: y = active, n = inactive

Field: example entries. Status: answers known.
> print(dat)
                                   compound  answer.label
1        O=C1C=C(Nc2cccc(Br)c2)c2ccccc2C1=O             n
2  COC(=O)c1cc(Nc2ccc(O)c3c2C(=O)c2c([N+](=O)[O-])ccc(O)c2C3=O)cc(C(=O)OC)c1             n
3  CCN(CC)CCC(=O)Nc1ccc(Cn2nnc3c2C(=O)c2nnn(Cc4ccc(NC(=O)CCN(CC)CC)cc4)c2C3=O)cc1             n
4  Cc1nnc([S-])s1.[Au+].c1ccc([PH+](c2ccccc2)c2ccccc2)cc1             n
5  CC[C@@]1(OC(=O)CN)C(=O)OCc2c1cc1n(c2=O)Cc2cc3cc(N)ccc3nc2-1             n
6  COc1ccccc1C1C(C#N)=C(N)OC2=C1C(=O)CCC2 (stereo not drawn)             n

What outcome does the record of this test show for COC(=O)[C@H](Cc1ccccc1)NC(=O)c1csc([C@@H](C[C@H](C(C)C)N(C)C(=O)[C@@H](NC(=O)[C@H]2CCCCN2C)C2CC2)OC(C)=O)n1 ?
y

What outcome does the record of this test show for O=c1oc(-c2ccc(O)c(O)c2)cc2cc(O)cc(O)c12 ?
n
